target: human TLR8 (Homo sapiens, UniProt Q9NR97)
Construct: host or cells: HEK-Blue cells
Sequence (Q9NR97 27-1041): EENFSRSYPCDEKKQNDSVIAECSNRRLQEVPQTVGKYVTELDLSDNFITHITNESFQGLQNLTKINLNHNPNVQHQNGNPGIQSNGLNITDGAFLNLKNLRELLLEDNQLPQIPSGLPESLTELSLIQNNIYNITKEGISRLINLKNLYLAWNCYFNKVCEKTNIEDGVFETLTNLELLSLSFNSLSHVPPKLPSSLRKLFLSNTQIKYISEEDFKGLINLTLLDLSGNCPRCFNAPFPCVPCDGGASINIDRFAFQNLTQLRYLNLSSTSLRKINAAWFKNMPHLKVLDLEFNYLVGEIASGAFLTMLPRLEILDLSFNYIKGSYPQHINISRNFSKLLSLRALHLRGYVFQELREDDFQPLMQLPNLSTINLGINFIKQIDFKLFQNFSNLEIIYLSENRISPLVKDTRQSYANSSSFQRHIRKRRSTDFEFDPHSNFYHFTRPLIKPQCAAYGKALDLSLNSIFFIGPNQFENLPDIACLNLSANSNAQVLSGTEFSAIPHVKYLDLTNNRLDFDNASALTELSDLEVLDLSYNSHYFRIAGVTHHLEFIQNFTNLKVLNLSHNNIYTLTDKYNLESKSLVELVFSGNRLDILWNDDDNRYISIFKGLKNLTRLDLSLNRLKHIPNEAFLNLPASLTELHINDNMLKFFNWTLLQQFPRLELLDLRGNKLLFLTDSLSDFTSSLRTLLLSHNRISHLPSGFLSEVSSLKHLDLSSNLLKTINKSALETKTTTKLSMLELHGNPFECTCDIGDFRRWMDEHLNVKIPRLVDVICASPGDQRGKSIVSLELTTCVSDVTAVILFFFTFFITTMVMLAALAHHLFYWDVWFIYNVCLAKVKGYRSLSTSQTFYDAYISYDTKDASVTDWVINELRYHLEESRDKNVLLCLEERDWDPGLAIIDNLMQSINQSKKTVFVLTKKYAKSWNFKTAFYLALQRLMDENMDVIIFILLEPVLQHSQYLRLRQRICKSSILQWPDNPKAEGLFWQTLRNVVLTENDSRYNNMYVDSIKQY
run_description: TLR8 inhibition reporter assay (HEK-Blue cells, SEAP reporter, R848 stimulation)
Assay type: cell-based
condition_label: HEK-Blue cells overexpressing human TLR8, SEAP reporter, R848 15.9 μM; read-out: TLR8 IC50
observed_property: IC50 (nM)
# unit: nM | format: bare number

Known IC50 results, listed for orientation:
compound	result_number
Cc1cc(-c2[nH]c3sc(C4CCN(C5COC5)CC4)nc3c2C(C)C)cn2ncnc12	8.06
COc1cc(-c2[nH]c3sc(C4CCC(NC5(C#N)CC5)CC4)nc3c2C(C)C)cn2ncnc12 (stereo not shown) [Example 106]	90.9
Cc1c(-c2[nH]c3sc(C4CCC(N5CCOCC5)CC4)nc3c2C(C)C)cn2ncnc2c1C (single isomer, unassigned) [Example 213]	3.41
Cc1c(-c2[nH]c3sc(C4CCC(NCC(N)=O)CC4)nc3c2C(C)C)cn2ncnc2c1C (stereo not shown) [Example 210]	1.24
Cc1c(-c2[nH]c3sc(N4CCC(NC5COC5)CC4)nc3c2C(C)C)cn2ncnc2c1C	0.73
Cc1cc(-c2[nH]c3sc(C4CCN(C(=O)CN(C)C)CC4)nc3c2C(C)C)cn2ncnc12	12

Kindly consider the entry below.
Any idea what its IC50 is? The compound is COc1cc(-c2[nH]c3sc(C4CCN(C(C)C)CC4)nc3c2C(C)C)cn2ncnc12 1.9
